test system: OVCAR8; assay: drug sensitivity score (DSS) from 5-point dose-response viability curve (DSS (area-under-curve based score)); higher = more sensitive (stronger growth inhibition or killing); extreme values may be limits of the assay; settings: exposure time: 72 h; concentration range: 5 concentrations over 10,000-fold range
quantity_name: drug sensitivity score
Numbers only.

compound	quantity_name	number
CNC(=O)c1ccc(N2C(=S)N(c3ccc(C#N)c(C(F)(F)F)c3)C(=O)C2(C)C)cc1F [Enzalutamide]	drug sensitivity score	0

Would you be so kind as to report drug sensitivity score for each listed record?
1. C/C=C1\NC(=O)[C@H]2CSSCC/C=C/[C@H](CC(=O)N[C@H](C(C)C)C(=O)N2)OC(=O)[C@H](C(C)C)NC1=O
2. CC(C)c1cc(-c2n[nH]c(=O)n2-c2ccc3c(ccn3C)c2)c(O)cc1O
3. C=CC(=O)Nc1cc(Nc2nccc(-c3cn(C)c4ccccc34)n2)c(OC)cc1N(C)CCN(C)C
4. S=C(NCc1ccc2c(c1)OCO2)N1CCN(c2ncnc3c2oc2ccccc23)CC1
5. C=CC(=O)Nc1cccc(Nc2nc(Nc3ccc(OCCOC)cc3)ncc2F)c1
6. O=c1sn(-c2cccc3ccccc23)c(=O)n1Cc1ccccc1
7. Nc1nc(OCc2cc(Br)cs2)c2[nH]cnc2n1
8. COc1cc(OC2CCN(C)CC2)ccc1Nc1ncc2c(n1)n(C1CCCC1)c(=O)n2C

[28.1, 17, 3.7, 7.9, 0, 0, 0, 4.6]

Parameters: items (list). Returns: drug sensitivity score for each item.
1. CNC(=O)c1nn(C)c2c1C(C)(C)Cc1cnc(Nc3ccc(N4CCN(C)CC4)cc3)nc1-2
2. CC1=C2C[C@H]3[C@@H](CC[C@@H]4C[C@H](NS(C)(=O)=O)CC[C@@]43C)[C@@H]2CC[C@@]2(C1)O[C@@H]1C[C@H](C)CN[C@H]1[C@H]2C
3. CC[C@]1(O)C[C@@H]2CN(CCc3c([nH]c4ccccc34)[C@@](C(=O)OC)(c3cc4c(cc3OC)N(C)[C@H]3[C@@](O)(C(=O)OC)[C@H](OC(C)=O)[C@]5(CC)C=CCN6CC[C@]43[C@@H]65)C2)C1
4. COc1cc(Nc2ncc(F)c(Nc3ccc4c(n3)N(COP(=O)(O)O)C(=O)C(C)(C)O4)n2)cc(OC)c1OC
5. CN(C(=O)c1ccc(F)cc1C(F)(F)F)C1CCN(c2nnc(-c3ccnn3C)c3ccccc23)CC1
6. FC(F)(F)c1ccc(/C=C/c2nc(COc3ccc(CCCCn4ccnn4)cc3)co2)cc1
7. O=C(NOCCO)c1ccc2cncn2c1Nc1ccc(I)cc1F

[6.2, 0.4, 8.6, 0.3, 0, 16.7, 0.4]

Please supply drug sensitivity score for each of the following items, keeping them in order.
1. CC(C)(O)CC(=O)NCCn1ccc2ncnc(Nc3ccc(Oc4cccc(C(F)(F)F)c4)c(Cl)c3)c21
2. CC(C)C[C@H](NC(=O)[C@H](Cc1ccccc1)NC(=O)c1cnccn1)B(O)O
3. CCC(C)n1ncn(-c2ccc(N3CCN(c4ccc(OCC5COC(Cn6cncn6)(c6ccc(Cl)cc6Cl)O5)cc4)CC3)cc2)c1=O (centres undefined)
4. CC(=O)O[C@H]1C(=O)[C@@]2(C)[C@H]([C@H](OC(=O)c3ccccc3)[C@]3(O)C[C@H](OC(=O)[C@H](O)[C@@H](NC(=O)c4ccccc4)c4ccccc4)C(C)=C1C3(C)C)[C@]1(OC(C)=O)CO[C@@H]1C[C@@H]2O

0.1
23
1.9
27.6

I need drug sensitivity score for every entry listed below, if you could help.
1. COc1cccc2c1C(=O)c1c(O)c3c(c(O)c1C2=O)C[C@@](O)(C(=O)CO)C[C@@H]3O[C@H]1C[C@H](N)[C@H](O)[C@H](C)O1
2. C[C@]12CC[C@H](O)CC1=CC[C@@H]1[C@@H]2CC[C@]2(C)C(c3cccnc3)=CC[C@@H]12
3. Cn1nccc1Nc1nccc(-c2ccn([C@H](CO)c3ccc(Cl)c(F)c3)c(=O)c2)n1
4. CC1CCC(n2c3cnccc3c3cnc(Nc4ccc5c(n4)CCN(C(=O)CO)C5)nc32)CC1 (centres undefined)
5. Cc1cc(Nc2ncnc3ccc(NC4=NC(C)(C)CO4)cc23)ccc1Oc1ccn2ncnc2c1
6. Cc1ccc(=O)n(-c2ccccc2)c1
7. CNC(=O)c1cc(Oc2ccc(NC(=O)Nc3ccc(Cl)c(C(F)(F)F)c3)cc2)ccn1
8. O[C@H]1CC[C@H](Nc2ncc3nc(Nc4c(F)cc(F)cc4F)n([C@H]4CCOC4)c3n2)CC1

1. 8.8
2. 0
3. 6.9
4. 0
5. 0
6. 0
7. 0
8. 0

Recorded result, `CCc1cncnc1N1CCN(Cc2nc3ccc(C(F)(F)F)cc3[nH]2)CC1` , drug sensitivity score: 3.1
